Origin of values: paper PMC4336329

experimental-system: human ether-à-go-go-related gene (hERG) potassium channel (human);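 note: peak tail current of the secondary pulse compared with the same well before compound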
method-summary: primary screen, population patch clamp on CHO cells stably expressing hERG; higher = less effect of the substance
Procedure: Briefly, Chinese hamster ovary (CHO) cells stably expressing the hERG channel were dislodged from tissue culture flasks and dispensed into PPC plates. […] During the recording, background leak currents were estimated by a 100 ms step to -80 mV from an initial holding potential of -70 mV and subtracted from the subsequent current measurement. The campaign was conducted in two phases using slight differences in recording protocol. […]
The whole screen tested about 310,000 compounds, of which about 14,000 (4.5%) showed an effect of 50% or more. The effect is printed as a negative number. Many of the other results were omitted from the sample, so strong results are more common in it than they were.
parameter-measured: hERG current change (%, negative = inhibition) at 10uM (%)
Express it in %; write the number only.

Query: hERG current change (%, negative = inhibition) at 10uM; subject: Cl.Clc1ccc(OCCCN2CCc3ccccc3C2)c(Br)c1
-34.8

What does the record list as hERG current change (%, negative = inhibition) at 10uM for C=CCn1c2ccccc2c2nnc(SC(CC)C(=O)Nc3nc(C)c(C(=O)OCC)s3)nc21 (centres unmarked) ?
-43.9

Requested field: hERG current change (%, negative = inhibition) at 10uM. Item: OC(COc1ccc(F)cc1Cl)CN1CCc2ccccc2C1 (centres unmarked)
-41.7

What hERG current change (%, negative = inhibition) at 10uM value was documented for this compound, Cc1ccc(C(C)C)c(OCCCN2CCc3ccccc3C2)c1.Cl ?
-70.1

What value of hERG current change (%, negative = inhibition) at 10uM has been recorded for this entry: c1ccc2c(c1)CC/C2=N/Nc1nc2ccccc2[nH]1
9.49

Request the reported hERG current change (%, negative = inhibition) at 10uM associated with COc1ccc(C(=O)NC2CCN(C(=S)Nc3ccccc3)CC2)cc1
12.7

For the compound shown here, Cc1ccc(C(C)C)c(OCC(O)CN2CCOCC2)c1 (centres unmarked) , give the reported hERG current change (%, negative = inhibition) at 10uM.
-2.99

Requested field: hERG current change (%, negative = inhibition) at 10uM. Item: Cl.OC(COc1ccc(Cl)cc1Cl)CN1CCc2ccccc2C1 (centres unmarked)
-58.6

Requested read-out: hERG current change (%, negative = inhibition) at 10uM. Entry: CCOc1ccc(S(=O)(=O)N2CCC(C(=O)NCc3cccnc3)CC2)cc1
-27.1

Could you tell me which hERG current change (%, negative = inhibition) at 10uM is on file for N#Cc1c(N)n(CCNC(=O)c2cccs2)c2nc3ccccc3nc12 ?
10.4

Request the reported hERG current change (%, negative = inhibition) at 10uM associated with CC(=O)c1c(N2CCN(C)CC2)nc(=S)n(-c2cc(C)ccc2C)c1C
28.7

Fill in the blank: the reported hERG current change (%, negative = inhibition) at 10uM of COc1ccccc1/C=C/C(=O)NCC(=O)N/N=C(/C)c1ccco1 is ____.
7.74

Could you tell me which hERG current change (%, negative = inhibition) at 10uM is on file for Cl.Clc1ccc(OCCOCCN2CCc3ccccc3C2)c(Cl)c1 ?
-69.8

Item under review: CCOC(=O)C(Sc1nnc2c3ccccc3n(CC)c2n1)C(=O)OCC . Reported hERG current change (%, negative = inhibition) at 10uM?
-28.7

---

experimental-system: human ether-à-go-go-related gene (hERG) potassium channel (human);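 note: peak tail current of the secondary pulse compared with the same well before compound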
method-summary: primary screen, population patch clamp on CHO cells stably expressing hERG; higher = less effect of the substance
Out of some 310,000 compounds screened, about 14,000 (4.5%) showed an effect of 50% or more. Effects have a minus sign here. This excerpt belongs to a sample that is enriched for strong results.
parameter-measured: hERG current change (%, negative = inhibition) at 10uM (%)
Answer in %, number only, no unit symbol.

Fill in the blank: the reported hERG current change (%, negative = inhibition) at 10uM of CCc1ccc(-c2nc(CN3CCC(C(=O)NCCN(CC)c4ccccc4)CC3)c(C)o2)cc1 is ____.
-69.5

Please look up its hERG current change (%, negative = inhibition) at 10uM: CCN(CCNC(=O)C1CCN(S(=O)(=O)CC)CC1)c1ccccc1
-16.9

Dear colleague, I am looking for the recorded hERG current change (%, negative = inhibition) at 10uM of the following molecule: CCCCNC(=O)c1ccc(CNS(=O)(=O)c2ccc(Br)cc2)cc1
2

Requested field: hERG current change (%, negative = inhibition) at 10uM. Item: O=C(CCN1C(=O)/C(=C/C=C/c2ccccc2)SC1=S)Nc1nc2ccccc2s1
18.3

Suppose we examine the molecule COc1ccc(C)cc1NC(=O)C(Sc1nnc2ccccn12)c1ccccc1 (stereo not drawn) ; what hERG current change (%, negative = inhibition) at 10uM value has been reported?
-67.7

# get_value(readout='hERG current change (%, negative = inhibition) at 10uM', item= Cl.O=C(CN1CCCC1)N1c2ccccc2Sc2ccc(Cl)cc21 )
0.273

Look up hERG current change (%, negative = inhibition) at 10uM: CCn1cc(C(=O)NCc2ccc(OC)cc2)c(=O)c2ccc(C)nc21
22.1

Which hERG current change (%, negative = inhibition) at 10uM is listed for CCc1cccc(CC)c1NC(=O)CN1CCN(c2ccccc2)CC1.Cl ?
-15.7

For the molecule S=c1[nH]ncn1/N=C/c1ccc(N2CCOCC2)cc1 , what hERG current change (%, negative = inhibition) at 10uM is on record?
14.9

Quick one: hERG current change (%, negative = inhibition) at 10uM for COc1cc(/C=C/c2cc[n+](C)cc2)ccc1OCC(=O)Nc1ccc(Cl)c(Cl)c1.[I-] ?
-5.84

Entry O=C(N/N=C/c1ccccc1OCc1ccccc1)c1cccs1 : reported hERG current change (%, negative = inhibition) at 10uM = ?
5.13

Given Cc1ccnc2nc(C(=O)OCCOc3cccc(Br)c3)nn12 , state its recorded hERG current change (%, negative = inhibition) at 10uM.
-27.9

---

experimental-system: human ether-à-go-go-related gene (hERG) potassium channel (human, UniProt Q12809);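 note: peak tail current of the secondary pulse compared with the same well before compound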
Sequence (Q12809 whole entry, looked up): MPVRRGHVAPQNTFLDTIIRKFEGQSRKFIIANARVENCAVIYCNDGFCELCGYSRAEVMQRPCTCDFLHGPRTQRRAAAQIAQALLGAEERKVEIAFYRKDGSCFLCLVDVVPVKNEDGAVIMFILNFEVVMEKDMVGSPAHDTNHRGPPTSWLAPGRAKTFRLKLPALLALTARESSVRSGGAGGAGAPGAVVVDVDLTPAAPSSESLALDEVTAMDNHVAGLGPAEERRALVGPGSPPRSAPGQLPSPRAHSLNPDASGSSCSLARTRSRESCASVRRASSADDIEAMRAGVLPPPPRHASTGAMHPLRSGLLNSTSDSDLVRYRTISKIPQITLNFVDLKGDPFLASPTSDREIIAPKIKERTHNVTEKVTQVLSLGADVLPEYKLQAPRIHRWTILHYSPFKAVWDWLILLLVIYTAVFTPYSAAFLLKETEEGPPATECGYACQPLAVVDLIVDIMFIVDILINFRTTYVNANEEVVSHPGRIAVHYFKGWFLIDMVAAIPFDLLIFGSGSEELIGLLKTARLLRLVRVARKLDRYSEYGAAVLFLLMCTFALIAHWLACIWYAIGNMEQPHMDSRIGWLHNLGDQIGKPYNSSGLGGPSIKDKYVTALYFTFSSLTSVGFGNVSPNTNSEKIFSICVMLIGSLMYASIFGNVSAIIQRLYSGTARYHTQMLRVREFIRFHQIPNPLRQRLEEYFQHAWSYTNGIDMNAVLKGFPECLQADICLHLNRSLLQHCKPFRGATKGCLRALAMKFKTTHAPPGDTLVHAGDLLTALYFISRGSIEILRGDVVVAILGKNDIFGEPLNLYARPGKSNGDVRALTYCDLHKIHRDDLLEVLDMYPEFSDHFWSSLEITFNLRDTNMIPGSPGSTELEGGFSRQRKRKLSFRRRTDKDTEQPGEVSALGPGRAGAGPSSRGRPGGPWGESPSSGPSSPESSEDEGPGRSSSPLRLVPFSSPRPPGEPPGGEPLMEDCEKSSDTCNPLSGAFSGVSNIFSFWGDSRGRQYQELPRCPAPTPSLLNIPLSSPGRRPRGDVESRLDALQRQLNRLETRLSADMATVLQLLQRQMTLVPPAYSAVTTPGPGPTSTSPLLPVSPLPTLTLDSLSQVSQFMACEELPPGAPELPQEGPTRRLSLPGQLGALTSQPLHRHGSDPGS
method-summary: primary screen, population patch clamp on CHO cells stably expressing hERG; higher = less effect of the substance
Hit rate of the full screen: of about 310,000 compounds, about 14,000 (4.5%) showed an effect of 50% or more. Effects have a minus sign here. Many of the other results were omitted from the sample, so strong results are more common in it than they were.
parameter-measured: hERG current change (%, negative = inhibition) at 10uM
Reply with a number, then the unit it belongs to.

I'd like to know its hERG current change (%, negative = inhibition) at 10uM. The compound in question is O=C(CCCc1nc2ccccc2s1)NCc1cccnc1
0.483%

What does the data say about its hERG current change (%, negative = inhibition) at 10uM? Entry: Cc1cccc(NS(=O)(=O)c2c(C(=O)N3CCCC3)c(C)n(C)c2C)c1
18.1%

Reported hERG current change (%, negative = inhibition) at 10uM, compound COc1ccccc1-n1cnc2cc(NCc3ccco3)ccc21 : ____
-20.7%

What value of hERG current change (%, negative = inhibition) at 10uM has been recorded for this entry: CCN(CC)CCn1c(SCC(=O)Nc2ccc(F)cc2)nc2c(sc3ccccc32)c1=O.Cl
-14.9%

Would you kindly share the measured hERG current change (%, negative = inhibition) at 10uM for c1cc(-c2nnc3n2CCC3)[nH]n1 ?
12.5%

Quick one: hERG current change (%, negative = inhibition) at 10uM for O=C(NCc1cccnc1)c1ccccc1-c1ccccc1 ?
-0.462%

# input compound: CCCCC(=O)NC(Nc1cc(C)ccn1)(C(=O)OCC)C(F)(F)F (centres unmarked) ; wanted: its hERG current change (%, negative = inhibition) at 10uM
2.5%

Sample Cn1c(O)c(N=NC(=O)c2ccccc2O)c2ccccc21 — what was its hERG current change (%, negative = inhibition) at 10uM?
13.6%

---

experimental-system: human ether-à-go-go-related gene (hERG) potassium channel (human, UniProt Q12809);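 note: peak tail current of the secondary pulse compared with the same well before compound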
method-summary: primary screen, population patch clamp on CHO cells stably expressing hERG; higher = less effect of the substance
Screen size: about 310,000 compounds; about 14,000 (4.5%) showed an effect of 50% or more. Effects have a minus sign here. This is one part of a sample in which strong results are shown more often than they occur.
Short version: hERG current change (%, negative = inhibition) at 10uM at least -30% is Y, less is N.

Answer whether hERG current change (%, negative = inhibition) at 10uM of CCOc1cccc(/C=N/Nc2ccc(S(=O)(=O)N(CC)CC)cn2)c1O is greater than or equal to -30%.
Y

Given the entry COc1cc(/C=C2/SC(=S)N(CCC(=O)Nc3ccccc3)C2=O)cc(OC)c1OC , answer whether its hERG current change (%, negative = inhibition) at 10uM meets or surpasses -30%.
Y

Check this molecule for hERG current change (%, negative = inhibition) at 10uM at or above -30%: Cc1ccc(OCCCn2ccnc2)c([N+](=O)[O-])c1
N

Entry CCCCCOc1ccc(Cn2ccnc2)cc1[N+](=O)[O-].Cl : is its hERG current change (%, negative = inhibition) at 10uM no less than -30%?
N

Assess whether reported hERG current change (%, negative = inhibition) at 10uM for CCn1c(C)nc2cc(S(N)(=O)=O)ccc21 sits at -30% or higher.
Y

Would you say CCCN(Cc1nnc(-c2cccs2)o1)C(=O)c1cccc(S(=O)(=O)N2CCOCC2)c1 shows hERG current change (%, negative = inhibition) at 10uM at minimum -30%?
Y

Is hERG current change (%, negative = inhibition) at 10uM for CCOC(C(=O)OCCCN(CC)CC)(c1ccccc1)c1ccccc1.Cl at or above -30%?
Y

Check if hERG current change (%, negative = inhibition) at 10uM >= -30% (inclusive). Item: O=C(N/N=C/c1ccncc1)c1cc(-c2ccc(Br)s2)[nH]n1
Y
